- METHOD NOTES: Water miscibility of amidines in neutral form and after CO2
- Type: physicochemical
- ASSAY CONDITIONS: no CO2
MEASURED ENDPOINT: miscibility with water, neutral (unprotonated) amidine form

CCCN=C(CCC)N(CCC)CCC: immiscible with water
CCCCCCN=C(C)N(C)C [Me2N—C(═N-hexyl)Me, reference compound]: water-miscible
C1CCC2=NCCCN2CC1 [DBU, 1,8-diazabicyclo-[5.4.0]-undec-7-ene, reference compound]: water-miscible
CCCCN=C(CCCC)N(CCCC)CCCC: immiscible with water

----------
- METHOD NOTES: Miscibility of amines with water in the presence of CO2 (Example 5B)
- Format: physicochemical
- ASSAY CONDITIONS: CO2 bubbled through amine/water mixture for at least one hour
MEASURED ENDPOINT: miscibility with water after CO2 treatment

CCN(CC)CCCCN(CC)CC: single-phase
CCCCCCN(C)C: single-phase
CCCN(CCC)CCCCN(CCC)CCC [N,N,N′,N′-tetrapropylbutane-1,4-diamine, reference compound]: biphasic
CCCCCCCCCCCCN(C)C [N,N-dimethyldodecylamine, reference compound]: biphasic
CCN(C(C)C)C(C)C [N,N-diisopropylethylamine, reference compound]: biphasic
CCCN(CCC)CCC [tripropylamine, reference compound]: biphasic
CCCCCCCCN(CCCCCCCC)CCCCCCCC [trioctylamine, reference compound]: biphasic

We now examine a further compound.
Look up miscibility with water after CO2 treatment of CCCCN(CC)CC and report it. single-phase
